All figures here come from patent US20200140562A1.

Give Fold difference for every item shown.
# experimental-target: T1, human OX40 on cells (CHO-hOX40, 293HEK-hOX40, Jurkat-hOX40, activated primary CD4+ T cells) (human, UniProt P43489 29-277)
# T1 construct: whole, on cells; The cell type is told in each assay; also called CHO-OX40
# T1 sequence (looked up): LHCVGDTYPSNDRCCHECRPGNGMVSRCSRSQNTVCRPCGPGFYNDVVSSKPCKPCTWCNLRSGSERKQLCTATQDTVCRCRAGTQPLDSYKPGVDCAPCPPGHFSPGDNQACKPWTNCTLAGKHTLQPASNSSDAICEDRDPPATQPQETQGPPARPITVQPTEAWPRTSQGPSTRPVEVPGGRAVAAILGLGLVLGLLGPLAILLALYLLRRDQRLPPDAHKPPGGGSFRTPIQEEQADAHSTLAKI
# assay-text: flow cytometry, MFI on CHO-hOX40 over wild-type CHO
Answer with a number only, understood to be in fold.

Quick check: Fold difference of ADI-25650, IgG1 format (antibody, V domains shown, Made in yeast) VH: QVQLVESGGGVVQPGRSLRLSCAASGFTFSVYNMHWVRQAPGKGLEWVAVIAYDGSAKYYADSVKGRFTISRDNSKNTLYLQMNSLRAEDTAVYYCARGRPWYSETGTSAFDIWGQGTMVTVSS VL: DIQMTQSPSSLSASVGDRVTITCQASQDISNYLNWYQQKPGKAPKLLIYDASNLETGVPSRFSGSGSGTDFTFTISSLQPEDIATYYCQQSDHYPTFGGGTKVEIKR ?
2040

Quick check: Fold difference of ADI-23518, IgG1 format (antibody, V domains shown, Made in yeast) VH: QVQLQESGPGLVKPSQTLSLTCTVSGGSISSGASYWSWIRQHPGKGLEWIGYIYYSGETYYNPSLKSRVTISVDTSKNQFSLKLSSVTAADTAVYYCARDVGYPHYYGMDVWGQGTTVTVSS VL: EIVLTQSPGTLSLSPGERATLSCRASQSVSSSYLAWYQQKPGQAPRLLIYGASSRATGIPDRFSGSGSGTDFTLTISRLEPEDFAVYYCQQSERSPFTFGGGTKVEIKR ?
1480

Quick check: Fold difference of ADI-25652, IgG1 format (antibody, V domains shown, Made in yeast) VH: QVQLVESGGGVVQPGRSLRLSCAASGFTFVSYNMHWVRQAPGKGLEWVAVIAYDGSVKYYADSVKGRFTISRDNSKNTLYLQMNSLRAEDTAVYYCARGRPWYSETGTSAFDIWGQGTMVTVSS VL: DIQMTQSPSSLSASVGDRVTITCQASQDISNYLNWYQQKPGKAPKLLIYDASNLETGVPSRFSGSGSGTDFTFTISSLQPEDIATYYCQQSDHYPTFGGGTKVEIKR ?
2400
